Cited source: patent US8309558B2

Target: HCV NS5B RdRp genotype 1b (Hepatitis C virus genotype 1b, UniProt Q9WMX2)
Construct: The protein was expressed with an 18 amino acid C-terminal truncation to enhance the solubility; made in house; host or cells: E. coli BL21(DE3), pET21a vector
Sequence (Q9WMX2 2420-2992): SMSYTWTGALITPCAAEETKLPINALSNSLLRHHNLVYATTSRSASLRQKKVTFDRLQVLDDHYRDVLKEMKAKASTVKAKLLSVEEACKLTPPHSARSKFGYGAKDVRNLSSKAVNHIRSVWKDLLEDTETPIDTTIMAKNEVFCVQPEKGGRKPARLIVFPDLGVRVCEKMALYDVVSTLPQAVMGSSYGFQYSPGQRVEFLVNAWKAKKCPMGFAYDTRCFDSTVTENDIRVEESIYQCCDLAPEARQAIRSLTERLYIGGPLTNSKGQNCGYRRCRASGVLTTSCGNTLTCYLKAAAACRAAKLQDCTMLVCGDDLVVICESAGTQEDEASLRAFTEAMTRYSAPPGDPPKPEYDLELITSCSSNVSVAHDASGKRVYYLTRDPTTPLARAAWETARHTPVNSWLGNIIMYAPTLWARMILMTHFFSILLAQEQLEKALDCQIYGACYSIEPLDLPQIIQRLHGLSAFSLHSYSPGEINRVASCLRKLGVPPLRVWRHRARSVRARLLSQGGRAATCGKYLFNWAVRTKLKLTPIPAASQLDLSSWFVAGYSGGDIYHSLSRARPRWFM
Test: Standard HCV NS5B RdRp enzyme assay
Format: biochemical
Details: Table 1b; HCV NS5B RdRp genotype 1b; read-out: IC50
pIC50: −log10 of the molar value.
Measure: pIC50

Molecule: CNC(=O)c1c(-c2ccc(F)cc2)oc2ccc(-c3cc(C(=O)NC4(c5ccn(C)n5)CC4)c(OC)cc3C)cc12
Measure: pIC50
Assay Value: > 6.60

Molecule: CNC(=O)c1c(-c2ccc(F)cc2)oc2ccc(-c3cc(C(=O)N4CCC5(CC4)OCc4ccccc45)ccc3Cl)cc12
Measure: pIC50
Assay Value: 5.00 to 6.00

Molecule: CNC(=O)c1c(-c2ccc(F)cc2)oc2cc(N(CCO)S(C)(=O)=O)c(/C=C/C(=O)NC(C)(C)c3ccccc3)cc12
Measure: pIC50
Assay Value: > 6.60

Molecule: CNC(=O)c1c(-c2ccc(F)cc2)oc2ccc(-c3cc(C(=O)NC4(c5ccccn5)CC4)c(OC(C)C)cc3C)cc12
Measure: pIC50
Assay Value: > 6.60

Molecule: CNC(=O)c1c(-c2ccc(F)cc2)oc2cc(N(CCO)S(C)(=O)=O)c(-c3cccc(C(=O)NC(C)(C)c4nc(C)no4)c3)cc12
Measure: pIC50
Assay Value: > 6.60

Molecule: CNC(=O)c1c(-c2ccc(F)cc2)oc2ccc(-c3cccc(C(=O)NC(C)(C)c4ccc(Cl)cc4)c3)cc12
Measure: pIC50
Assay Value: > 6.60

Molecule: CNC(=O)c1c(-c2ccc(F)cc2)oc2ccc(-c3cc(C(=O)NCC(C)C)ccc3OCCN)cc12
Measure: pIC50
Assay Value: > 6.60

Molecule: CNC(=O)c1c(-c2ccc(F)cc2)oc2ccc(-c3ccc(-c4ccnc(C)c4)c(C(=O)NCC(C)C)c3)cc12
Measure: pIC50
Assay Value: > 6.60

Molecule: CNC(=O)c1c(-c2ccc(F)cc2)oc2ccc(-c3cc(C(=O)NC4(c5ncccn5)CC4)c(C)cc3C)c(F)c12
Measure: pIC50
Assay Value: 6.00 to 6.60

Molecule: CNC(=O)c1c(-c2ccc(F)cc2)oc2ccc(-c3cc(C(=O)NCC(C)C)ccc3OCCc3c[nH]c4ccccc34)cc12
Measure: pIC50
Assay Value: 5.00 to 6.00

Molecule: CNC(=O)c1c(-c2ccc(F)cc2)oc2ccc(-c3cc(C(=O)NCC(C)C)ccc3OCc3ccncc3)cc12
Measure: pIC50
Assay Value: > 6.60

Molecule: CNC(=O)c1c(-c2ccc(F)cc2)oc2ccc(-c3cc(OCCn4ccnc4C)cc(C(=O)NCC(C)C)c3)cc12
Measure: pIC50
Assay Value: 5.00 to 6.00

----------
Reported pIC50 values follow for various molecules
Target: HCV NS5B RdRp genotype 1b (Hepatitis C virus genotype 1b, UniProt Q9WMX2)
Construct: The protein was expressed with an 18 amino acid C-terminal truncation to enhance the solubility; made in house; host or cells: E. coli BL21(DE3), pET21a vector
Assay: Standard HCV NS5B RdRp enzyme assay
Format: biochemical
Settings: Table 1b; HCV NS5B RdRp genotype 1b; read-out: IC50
pIC50: −log10 of the molar value.

Molecule: CNC(=O)c1c(-c2ccc(F)cc2)oc2ccc(-c3cc(C(=O)NC4(CO)CC4)ccc3C)cc12
pIC50: 5.00 to 6.00
//
Molecule: CNC(=O)c1c(-c2ccc(F)cc2)oc2ccc(-c3cc(C(=O)NCC(C)C)ccc3OCC(F)F)cc12
pIC50: 6.00 to 6.60
//
Molecule: CNC(=O)c1c(-c2ccc(F)cc2)oc2ccc(-c3cc(C(=O)NC4(C(=O)OC)CC4)c(O)cc3Cl)cc12
pIC50: 6.00 to 6.60
//
Molecule: CNC(=O)c1c(-c2ccc(F)cc2)oc2cc(N(CCO)S(C)(=O)=O)c(-c3cccc(C(=O)NC(C)(C)C)c3)cc12
pIC50: > 6.60
//
Molecule: CNC(=O)c1c(-c2ccc(F)cc2)oc2cc([N+](=O)[O-])c(-c3cccc(C(=O)NCC(C)C)c3)cc12
pIC50: > 6.60
//
Molecule: CNC(=O)c1c(-c2ccc(F)cc2)oc2ccc(-c3cc(C(=O)NC4(c5ncccn5)CC4)c(OC)cc3C)c(F)c12
pIC50: > 6.60
//
Molecule: CNC(=O)c1c(-c2ccc(F)cc2)oc2cc(N(CCO)S(C)(=O)=O)c(-c3cccc(C(=O)NC(C)(C)C(=O)Nc4cc(C)no4)c3)cc12
pIC50: > 6.60
//
Molecule: CNC(=O)c1c(-c2ccc(F)cc2)oc2ccc(-c3ccc(-c4cnn(C)c4)c(C(=O)NCC(C)C)c3)cc12
pIC50: > 6.60
//
Molecule: CNC(=O)c1c(-c2ccc(F)cc2)oc2ccc(-c3cc(C(=O)NCC(C)C)ccc3OCCCn3cccc3)cc12
pIC50: 5.00 to 6.00
//
Molecule: CNC(=O)c1c(-c2ccc(F)cc2)oc2ccc(-c3ccc(-c4ccc(C(N)=O)cc4)c(C(=O)NCC(C)C)c3)cc12
pIC50: > 6.60
//
Molecule: CNC(=O)c1c(-c2ccc(F)cc2)oc2ccc(-c3cc(C(=O)NCC(C)C)ccc3OCCc3c(C)n[nH]c3C)cc12
pIC50: > 6.60
//
Molecule: CCOC(=O)c1[nH]c(-c2cccc(-c3ccc4oc(-c5ccc(F)cc5)c(C(=O)NC)c4c3)c2)nc1C
pIC50: > 6.60
//
Molecule: CNC(=O)c1c(-c2ccc(F)cc2)oc2ccc(-c3cncc(C(=O)NC(C)(C)C)c3)cc12
pIC50: > 6.60

----------
System: HCV replicon cells
Assay: HCV replicon FRET / luciferase assay (96-well plates)
Format: cell-based
Details: Hepatitis C virus, Table 1a; HCV replicon; read-out: EC50
pEC50: −log10 of the molar value.
pEC50 listing for selected molecules.

Molecule: CNC(=O)c1c(-c2ccc(F)cc2)oc2ccc(-c3cccc(C(=O)NC(C)c4ccc(F)cc4)c3)cc12 (stereo not drawn)
pEC50: > 6.60
//
Molecule: CNC(=O)c1c(-c2ccc(F)cc2)oc2ccc(-c3cccc(C(=O)NC(C)(C)C(=O)NCC(F)F)c3)cc12
pEC50: > 6.60
//
Molecule: CNC(=O)c1c(-c2ccc(F)cc2)oc2ccc(-c3cccc(C(=O)NC(C)(C)C(=O)NC)c3)cc12
pEC50: > 6.60
//
Molecule: CNC(=O)c1c(-c2ccc(F)cc2)oc2ccc(-c3cccc(C(=O)Nc4cnccn4)c3)cc12
pEC50: > 6.60
//
Molecule: CNC(=O)c1c(-c2ccc(F)cc2)oc2ccc(-c3cccc(C(=O)N4CCCC4c4ccccc4)c3)cc12 (stereo not drawn)
pEC50: 6.00 to 6.60
//
Molecule: CNC(=O)c1c(-c2ccc(F)cc2)oc2ccc(-c3cccc(C(=O)NC(CCO)c4ccccc4)c3)cc12 (stereo not drawn)
pEC50: 6.00 to 6.60
//
Molecule: CNC(=O)c1c(-c2ccc(F)cc2)oc2ccc(-c3cccc(C(=O)NCc4ccccc4N)c3)cc12
pEC50: 5.00 to 6.00
//
Molecule: CNC(=O)c1c(-c2ccc(F)cc2)oc2ccc(-c3cccc(C(=O)NCc4cnc(C)cn4)c3)cc12
pEC50: 6.00 to 6.60
//
Molecule: CNC(=O)c1c(-c2ccc(F)cc2)oc2ccc(-c3ccc(C(=O)N(C)CCc4ccccn4)cc3)cc12
pEC50: > 6.60
//
Molecule: CNC(=O)c1c(-c2ccc(F)cc2)oc2ccc(-c3cccc(S(=O)(=O)NC(C)(C)C)c3)cc12
pEC50: < 5.00
//
Molecule: CNC(=O)c1c(-c2ccc(F)cc2)oc2cc(N)c(-c3cccc(C(=O)NC(C)(C)c4ccccc4)c3)cc12 [drawing 94]
pEC50: > 6.60
//
Molecule: CNC(=O)c1c(-c2ccc(F)cc2)oc2ccc(-c3cccc(C(=O)NC(C)(C)Cc4ccc(F)cc4)c3)cc12
pEC50: > 6.60
//
Molecule: CNC(=O)c1c(-c2ccc(F)cc2)oc2ccc(-c3cccc(C(=O)N(C)CCN(C)C)c3)cc12
pEC50: 5.00 to 6.00
//
Molecule: CNC(=O)c1c(-c2ccc(F)cc2)oc2ccc(-c3cccc(C(=O)N[C@@H]4CCc5ccc(O)cc54)c3)cc12
pEC50: 6.00 to 6.60
//
Molecule: CNC(=O)c1c(-c2ccc(F)cc2)oc2ccc(-c3ccc(C(=O)NCCc4ccccc4Cl)cc3)cc12
pEC50: < 5.00
//
Molecule: CN1CN(C)c2c(-c3cccc(C(N)=O)c3)ccc3oc(-c4ccc(F)cc4)c(c23)C1=O [drawing 319]
pEC50: < 5.00
//
Molecule: CNC(=O)c1c(-c2ccc(F)cc2)oc2ccc(-c3ccc(NC(=O)CCC(=O)O)cc3)cc12
pEC50: < 5.00
//
Molecule: CNC(=O)c1c(-c2ccc(F)cc2)oc2ccc(-c3cccc(C(=O)NCCc4cccs4)c3)cc12
pEC50: 6.00 to 6.60
